biological target: NTR1 (Homo sapiens, UniProt P30989); experiment: NTR1 Ca2+ Flux assay; conditions: NTR1 Ca2+ flux assay
Sequence (P30989 whole entry): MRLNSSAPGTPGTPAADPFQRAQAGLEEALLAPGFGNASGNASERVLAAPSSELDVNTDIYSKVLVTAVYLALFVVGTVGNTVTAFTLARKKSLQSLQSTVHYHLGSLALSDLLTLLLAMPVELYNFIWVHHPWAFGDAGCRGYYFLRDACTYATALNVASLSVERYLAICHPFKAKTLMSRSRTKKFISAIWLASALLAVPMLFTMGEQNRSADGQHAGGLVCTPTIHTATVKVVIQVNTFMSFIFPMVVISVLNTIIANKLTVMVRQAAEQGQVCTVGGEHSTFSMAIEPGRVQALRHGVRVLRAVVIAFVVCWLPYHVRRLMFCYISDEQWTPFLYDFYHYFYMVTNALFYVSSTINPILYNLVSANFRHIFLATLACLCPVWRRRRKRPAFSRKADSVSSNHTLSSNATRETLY
pEC50: −log10 of the molar value.
endpoint_name: pEC50

Query: Give the reported pEC50 for COc1cccc(OC)c1-c1cc(C(=O)N[C@@H](CC(C)C)C(=O)O)nn1-c1ccnc2cc(Cl)ccc12 [Compound 2, reference compound] (system: NTR1 (Homo sapiens, UniProt P30989)).
Reply: > 6.81

###

target: NTR1 (Homo sapiens, UniProt P30989); assay: NTR1 HCS primary assay; format: cell-based; details: NTR1 HCS EC50 relative to compound 5
Hi there, I'd appreciate the recorded loss of potency compared to 5 for every entry that follows.

Answered cases to consult:
COc1cc2nc(C3CCC3)nc(N3CCN(c4ccccn4)CC3)c2cc1OC    > 6 fold
COc1ccccc1N1CCN(c2nc(C3CCC3)nc3ccccc23)CC1    4-6 fold
COc1ccc2c(N3CCN(c4ccccc4OC)CC3)nc(C3CCC3)nc2c1    4-6 fold

Query compound follows.
Query: Tell me the measured loss of potency compared to 5 of CCOc1cc2c(N3CCN(c4ccccc4[N+](=O)[O-])CC3)nc(-c3ccccc3)nc2cc1OC , please.
Reply: > 6 fold
